Data origin, for the record: ChEMBL document CHEMBL1135402

Biological target: Serotonin receptor 2a and 2c (5HT2A and 5HT2C) (Rattus norvegicus) (UniProt P08909+P14842)
Sequence (P08909 whole entry, looked up): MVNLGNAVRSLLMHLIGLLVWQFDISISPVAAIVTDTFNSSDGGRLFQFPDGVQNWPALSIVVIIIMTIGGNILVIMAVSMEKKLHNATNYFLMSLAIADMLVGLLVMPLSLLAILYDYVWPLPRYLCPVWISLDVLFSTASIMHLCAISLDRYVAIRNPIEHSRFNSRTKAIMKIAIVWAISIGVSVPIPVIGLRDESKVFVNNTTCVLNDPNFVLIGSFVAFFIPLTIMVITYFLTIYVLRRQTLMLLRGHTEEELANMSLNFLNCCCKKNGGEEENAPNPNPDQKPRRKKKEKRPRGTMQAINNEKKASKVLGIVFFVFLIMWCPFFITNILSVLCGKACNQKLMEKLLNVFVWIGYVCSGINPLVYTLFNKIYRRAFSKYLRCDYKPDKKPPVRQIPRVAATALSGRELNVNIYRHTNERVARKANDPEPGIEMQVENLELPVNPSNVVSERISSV
Sequence (P14842 whole entry, looked up): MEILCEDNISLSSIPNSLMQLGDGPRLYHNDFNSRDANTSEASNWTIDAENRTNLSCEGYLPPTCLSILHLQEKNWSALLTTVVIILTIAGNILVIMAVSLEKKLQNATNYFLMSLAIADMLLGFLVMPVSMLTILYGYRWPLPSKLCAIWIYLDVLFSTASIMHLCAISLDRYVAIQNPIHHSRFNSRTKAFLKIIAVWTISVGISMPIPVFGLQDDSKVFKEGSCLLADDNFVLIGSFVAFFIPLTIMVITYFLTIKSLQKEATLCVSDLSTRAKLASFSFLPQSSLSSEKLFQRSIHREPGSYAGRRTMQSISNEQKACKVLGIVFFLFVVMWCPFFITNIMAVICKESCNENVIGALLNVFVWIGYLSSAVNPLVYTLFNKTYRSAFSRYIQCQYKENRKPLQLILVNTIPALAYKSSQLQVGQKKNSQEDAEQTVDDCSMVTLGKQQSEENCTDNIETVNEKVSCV
Experiment: Selectivity ratio towards Ki of 5-hydroxytryptamine 2A receptor to 5-hydroxytryptamine 2C receptor
Format: protein assay
quantity: Ratio

compound: CCc1c(C)[nH]c2c1C(=O)C(CCN1CCN(c3ccccc3OC)CC1)CC2 (stereo unspecified)
data_value: 2.5

compound: O=C(CCCN1CCN(CCC2CCc3ccccc3C2=O)CC1)c1ccc(F)cc1 (stereo unspecified)
data_value: 46

compound: O=C1CC(CN2CCC(c3noc4cc(F)ccc34)CC2)Cc2[nH]c3ccccc3c21 (stereo unspecified)
data_value: 36

compound: CCc1c(C)[nH]c2c1C(=O)CC(CN1CCC(C(=O)c3ccc(F)cc3)CC1)C2 (stereo unspecified)
data_value: 4.1

compound: O=C1CC(CN2CCN(c3ncccn3)CC2)Cc2occc21 (stereo unspecified)
data_value: 1

I: O=C1CC(CN2CCC(C(=O)c3ccc(F)cc3)CC2)Cc2occc21 (stereo unspecified)
II: COc1ccccc1N1CCN(CCC2CCc3ccccc3C2=O)CC1 (stereo unspecified)
Decide: I or II , by lowest recorded Ratio. # answer = label of selected item
II
(II: 5.8, I: 616)

A: O=C1CC(CN2CCC(c3noc4cc(F)ccc34)CC2)Cc2sccc21 (racemic)
B: O=C1c2ccoc2CCC1CCN1CCC(c2noc3cc(F)ccc23)CC1 (stereo unspecified)
C: CCc1c(C)[nH]c2c1C(=O)CC(CN1CCN(CCCC(=O)c3ccc(F)cc3)CC1)C2 (stereo unspecified)
Arrange items by their Ratio values in increasing order. I would appreciate it if you listed the labels in the requested order.
C, A, B
